Give pIC50 for every item shown.
- target.or.system: Phosphatidylinositol 4,5-bisphosphate 3-kinase catalytic subunit alpha isoform (Homo sapiens, UniProt P42336)
- Sequence (P42336 whole entry, canonical isoform): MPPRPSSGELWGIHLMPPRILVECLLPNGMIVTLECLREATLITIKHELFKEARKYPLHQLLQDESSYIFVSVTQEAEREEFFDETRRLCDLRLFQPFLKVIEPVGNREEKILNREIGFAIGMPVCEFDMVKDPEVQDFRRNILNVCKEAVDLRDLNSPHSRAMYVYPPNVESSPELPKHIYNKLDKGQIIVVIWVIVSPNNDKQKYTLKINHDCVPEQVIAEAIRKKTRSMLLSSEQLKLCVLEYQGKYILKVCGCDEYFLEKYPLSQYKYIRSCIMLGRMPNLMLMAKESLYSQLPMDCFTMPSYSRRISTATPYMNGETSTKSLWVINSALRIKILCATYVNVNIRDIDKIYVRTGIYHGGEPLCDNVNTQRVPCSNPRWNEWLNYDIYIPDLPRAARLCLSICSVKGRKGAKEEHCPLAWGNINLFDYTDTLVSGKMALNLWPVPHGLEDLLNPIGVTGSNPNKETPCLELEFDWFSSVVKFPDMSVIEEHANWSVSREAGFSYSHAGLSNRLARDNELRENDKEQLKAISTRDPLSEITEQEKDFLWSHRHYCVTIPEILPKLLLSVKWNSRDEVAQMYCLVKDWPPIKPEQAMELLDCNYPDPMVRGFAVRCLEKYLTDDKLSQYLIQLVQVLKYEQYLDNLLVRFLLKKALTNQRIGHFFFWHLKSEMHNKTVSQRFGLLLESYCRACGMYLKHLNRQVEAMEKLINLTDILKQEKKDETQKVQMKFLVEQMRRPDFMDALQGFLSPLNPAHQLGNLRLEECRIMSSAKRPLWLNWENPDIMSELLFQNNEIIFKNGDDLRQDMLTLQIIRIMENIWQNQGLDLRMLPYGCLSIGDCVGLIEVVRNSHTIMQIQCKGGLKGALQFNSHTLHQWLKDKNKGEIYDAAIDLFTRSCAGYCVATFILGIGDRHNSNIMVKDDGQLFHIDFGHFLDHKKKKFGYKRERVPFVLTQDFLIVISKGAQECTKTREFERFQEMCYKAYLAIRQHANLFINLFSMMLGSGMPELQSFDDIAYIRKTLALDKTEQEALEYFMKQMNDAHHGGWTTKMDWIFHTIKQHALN
- assay.overview: Inhibition of PI3Kalpha (unknown origin) using PIP2 as substrate in presence of ATP incubated for 60 mins by ADP-glo based luminescence assay
Units for pIC50: none; it is -log10 of a concentration expressed in mol/L.

Input: Which pIC50 value is on record for NC(=O)C1CCCN1C(=O)c1ccc(NC(=O)Nc2ccc(-c3nc(N4CCOCC4)nc(N4CCOCC4)n3)cc2)cc1 (configuration not stated) ?
Output: 9.22

Input: Which pIC50 value is on record for CN(C)[C@@H]1C[C@@H](C(N)=O)N(C(=O)c2ccc(NC(=O)Nc3ccc(-c4nc(N5CCOCC5)nc(N5CCOCC5)n4)cc3)cc2)C1 ?
Output: 8.15

Input: Which pIC50 value is on record for C[C@@H]1COCCN1c1nc(-c2ccc(NC(=O)Nc3ccc(C(=O)N4CCC[C@H]4C(N)=O)cc3)cc2)nc(N2CCOCC2)n1 ?
Output: 8.74

Input: Which pIC50 value is on record for O=C(Nc1ccc(C(=O)N2CCCC2C(=O)O)cc1)Nc1ccc(-c2nc(N3CCOCC3)nc(N3CCOCC3)n2)cc1 (configuration not stated) ?
Output: 7.96

Input: Which pIC50 value is on record for NC(=O)C1CCN(C(=O)c2ccc(NC(=O)Nc3ccc(-c4nc(N5CCOCC5)nc(N5CCOCC5)n4)cc3)cc2)CC1 ?
Output: 9.15

Input: Which pIC50 value is on record for NC(=O)[C@@H]1C[C@@H]2C[C@@H]2N1C(=O)c1ccc(NC(=O)Nc2ccc(-c3nc(N4CCOCC4)nc(N4CCOCC4)n3)cc2)cc1 ?
Output: 8.72
